Where do these numbers come from? They come from paper PMC10596003.

Biological target: SAMHD1 binding to ssDNA32 (Homo sapiens)
Assay: fluorescence anisotropy displacement of 5′-FAM-labeled ssDNA32
Conditions: read-out: EC50 ssDNA displacement; 1 μM SAMHD1, 0.5 μM ssDNA32
TEST READOUT: pEC50
Conceptually, pEC50 converts a concentration in mol/L into minus its log10.

Reported pEC50, compound Nc1nc2c(ncn2[C@@H]2O[C@H](COP(=O)(O)OP(=O)(O)OP(=O)(O)O)[C@@H](O)[C@H]2O)c(=O)[nH]1 [GTP] : ____ 4.05

---

Biological target: SAMHD1 A1 site (Homo sapiens, UniProt Q9Y3Z3)
Sequence (Q9Y3Z3 whole entry): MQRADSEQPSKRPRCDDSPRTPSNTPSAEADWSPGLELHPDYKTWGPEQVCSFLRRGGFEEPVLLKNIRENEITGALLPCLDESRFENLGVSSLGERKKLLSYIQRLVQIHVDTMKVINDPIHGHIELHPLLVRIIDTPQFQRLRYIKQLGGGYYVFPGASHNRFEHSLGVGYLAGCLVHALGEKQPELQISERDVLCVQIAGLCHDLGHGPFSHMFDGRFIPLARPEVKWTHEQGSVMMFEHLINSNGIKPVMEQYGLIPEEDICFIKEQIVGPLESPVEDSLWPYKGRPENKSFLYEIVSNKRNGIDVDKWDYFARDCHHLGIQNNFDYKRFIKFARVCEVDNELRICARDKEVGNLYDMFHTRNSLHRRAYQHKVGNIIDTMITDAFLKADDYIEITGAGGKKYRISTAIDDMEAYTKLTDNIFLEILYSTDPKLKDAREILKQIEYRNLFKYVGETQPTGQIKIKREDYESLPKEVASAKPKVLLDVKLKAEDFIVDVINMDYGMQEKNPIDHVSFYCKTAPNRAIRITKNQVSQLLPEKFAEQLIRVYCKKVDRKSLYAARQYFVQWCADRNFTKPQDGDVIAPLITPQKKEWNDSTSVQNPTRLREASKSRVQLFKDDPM
Test: fluorescence anisotropy competitive binding assay with 5′-FAM-pdGpdGpdG-3′ probe
Conditions: read-out: binding Kd; competition with 5′ FAM-pdGpdGpdG-3′ probe
Recorded Kd values for a group of compounds are listed next.
Write the number in µM without appending the unit.

Reference set (5 entries):
STRUCTURE NOTATION: Nc1nc2c(ncn2[C@@H]2O[C@H](COP(=O)(O)OP(=O)(O)OP(=O)(O)O)[C@@H](O)[C@H]2O)c(=O)[nH]1
NUMBER: 61
//
STRUCTURE NOTATION: Nc1nc2c(ncn2[C@@H]2O[C@H](COP(=O)(O)O)[C@@H](O)[C@H]2O)c(=O)[nH]1
NUMBER: 110
//
STRUCTURE NOTATION: Nc1nc2c(ncn2[C@H]2C[C@H](O)[C@@H](COP(=O)(O)OP(=O)(O)O)O2)c(=O)[nH]1
NUMBER: 130
//
STRUCTURE NOTATION: Nc1nc2c(ncn2[C@H]2C[C@H](OP(=O)(O)O[C@H]3C[C@H](n4cnc5c(N)ncnc54)O[C@@H]3CO)[C@@H](CO)O2)c(=O)[nH]1
NUMBER: 70
//
STRUCTURE NOTATION: Nc1nc2c(ncn2[C@@H]2O[C@H](COP(=O)(O)OP(=O)(O)O)[C@@H](O)[C@H]2O)c(=O)[nH]1
NUMBER: 210

Now turn to the next compound.
Item Nc1nc2c(ncn2[C@H]2C[C@H](O)[C@@H](COP(=O)(O)O)O2)c(=O)[nH]1 has what recorded Kd? 140

---

Target: SAMHD1 (Homo sapiens, UniProt Q9Y3Z3)
Assay: glutaraldehyde protein cross-linking assay of oligomeric state
Settings: 500 μM analog (dGTPαS 100 μM), 0.6 μM SAMHD1

COMPOUND: Nc1nc2c(ncn2[C@H]2C[C@H](O)[C@@H](COP(=O)(O)OP(=O)(O)O)O2)c(=O)[nH]1
TARGET SYSTEM: SAMHD1 (Homo sapiens, UniProt Q9Y3Z3)
effect on oligomeric state: induced tetramerization
//
COMPOUND: Nc1nc2c(ncn2[C@H]2C[C@H](O)[C@@H](COP(O)(=S)OP(=O)(O)OP(=O)(O)O)O2)c(=O)[nH]1 (stereo partly shown)
TARGET SYSTEM: SAMHD1 (Homo sapiens, UniProt Q9Y3Z3)
effect on oligomeric state: induced tetramerization

---

Quick reference for Kd among some compounds
Biological target: SAMHD1 A1 site (Homo sapiens, UniProt Q9Y3Z3)
Test: fluorescence anisotropy competitive binding assay with 5′-FAM-pdGpdGpdG-3′ probe
Settings: binding Kd (μM), competition with 5′ FAM-pdGpdGpdG-3′ probe
# output: bare number, implied unit µM

STRUCTURE NOTATION: Nc1nc2c(ncn2[C@@H]2O[C@H](CO)[C@@H](O)[C@H]2O)c(=O)[nH]1
RESULT UNITS: µM
Kd: 500

# next compound below
Could you share which Kd value was measured for Nc1nc2c(ncn2[C@H]2C[C@H](O)[C@@H](CO)O2)c(=O)[nH]1 ? 79

---

Molecular target: SAMHD1 (Homo sapiens, UniProt Q9Y3Z3)
Assay: glutaraldehyde protein cross-linking assay of oligomeric state
Conditions: 500 μM ligand, 600 nM SAMHD1
D (%), dimer values by entry
Numbers only; they are read as %.

Some compounds with known D (%), dimer results, for comparison:
COMPOUND: O=C(O)c1cccc(-c2cccc(Br)c2)c1 [Compound 1023, 3′-bromobiphenyl-3-carboxylic acid]
D (%), dimer: 17

COMPOUND: Nc1nc2c(ncn2[C@@H]2O[C@H](COP(=O)(O)O)[C@@H](O)[C@H]2O)c(=O)[nH]1 [GMP]
D (%), dimer: 87

COMPOUND: Nc1nc2c(ncn2COCCO)c(=O)[nH]1 [acyclovir]
D (%), dimer: 78

COMPOUND: Nc1nc2c(ncn2[C@H]2C[C@H](O)[C@@H](COP(=O)(O)OP(=O)(O)O)O2)c(=O)[nH]1 [dGDP]
D (%), dimer: 39

Here is the next item to consider.
API: value(readout=D (%), dimer, system=SAMHD1 (Homo sapiens, UniProt Q9Y3Z3)) for record Nc1nc2c(ncn2[C@@H]2O[C@H](CO)[C@@H](O)[C@H]2O)c(=O)[nH]1 [rG, guanosine] 64

---

Molecular target: SAMHD1 (Homo sapiens)
Assay: glutaraldehyde protein cross-linking assay of oligomeric state
Conditions: 500 μM ligand, 600 nM SAMHD1
TEST READOUT: T (%), tetramer
# output: bare number, implied unit %

COMPOUND: Nc1nc2c(ncn2[C@H]2C[C@H](O)[C@@H](COP(=O)(O)O)O2)c(=O)[nH]1 [dGMP]
RESULT UNITS: %
NUMBER: 0

Kindly state the measured T (%), tetramer obtained for O=C(O)c1cccc(-c2cccc(Br)c2)c1 [Compound 1023, 3′-bromobiphenyl-3-carboxylic acid] with SAMHD1 (Homo sapiens). 0

Lab request: please report T (%), tetramer under test system SAMHD1 (Homo sapiens) for Nc1ncnc2c1ncn2[C@H]1C[C@H](O)[C@@H](COP(=O)(O)O)O1 [dAMP] 0

Entry Nc1nc2c(ncn2[C@H]2C[C@H](OP(=O)(O)O[C@H]3C[C@H](n4cnc5c(N)ncnc54)O[C@@H]3CO)[C@@H](CO)O2)c(=O)[nH]1 [5′-dGpdA-5′] , system SAMHD1 (Homo sapiens): what T (%), tetramer was measured? 0

Param readout= T (%), tetramer; system= SAMHD1 (Homo sapiens); entry= Nc1nc2c(ncn2[C@@H]2O[C@H](COP(=O)(O)OP(=O)(O)OP(=O)(O)O)[C@@H](O)[C@H]2O)c(=O)[nH]1 [GTP] ; returns value. 30

Given the entry Nc1nc2c(ncn2[C@H]2C[C@H](O)[C@@H](CO)O2)c(=O)[nH]1 [dG, deoxyguanosine] , what T (%), tetramer was observed with SAMHD1 (Homo sapiens)? 0

---

Target: SAMHD1 binding to ssRNA32 (Homo sapiens)
Assay: fluorescence anisotropy displacement of 5′-FAM-labeled ssRNA32
Details: read-out: EC50 ssRNA displacement; 1 μM SAMHD1, 0.5 μM ssRNA32
TEST READOUT: pEC50
Just so you know, pEC50 here is -log10 of the concentration in molar units; reply with that number alone.

For the molecule shown here, Nc1nc2c(ncn2[C@@H]2O[C@H](COP(=O)(O)OP(=O)(O)OP(=O)(O)O)[C@@H](O)[C@H]2O)c(=O)[nH]1 [GTP] , give the reported pEC50. 3.77

---

compounds and their reported D (%), dimer
Target: UniProt:Q9Y3Z3
Test: glutaraldehyde protein cross-linking assay of oligomeric state
Settings: 500 μM ligand, 600 nM SAMHD1
Express the result in % but write the number alone.

Worked examples, 4 compounds total:
STRUCTURE NOTATION: Nc1nc2c([nH]c(=O)n2[C@H]2C[C@H](O)[C@@H](CO)O2)c(=O)[nH]1
TARGET SYSTEM: UniProt:Q9Y3Z3
D (%), dimer: 37
//
STRUCTURE NOTATION: Nc1nc2c(ncn2[C@H]2C[C@H](O)[C@@H](COP(=O)(O)O)O2)c(=O)[nH]1
TARGET SYSTEM: UniProt:Q9Y3Z3
D (%), dimer: 91
//
STRUCTURE NOTATION: Nc1nc2c(ncn2[C@@H]2O[C@H](COP(=O)(O)OP(=O)(O)O)[C@@H](O)[C@H]2O)c(=O)[nH]1
TARGET SYSTEM: UniProt:Q9Y3Z3
D (%), dimer: 88
//
STRUCTURE NOTATION: Nc1nc2c(ncn2[C@H]2C[C@H](OP(=O)(O)O[C@H]3C[C@H](n4cnc5c(N)ncnc54)O[C@@H]3CO)[C@@H](CO)O2)c(=O)[nH]1
TARGET SYSTEM: UniProt:Q9Y3Z3
D (%), dimer: 93

Which value of D (%), dimer has been reported for Nc1ncnc2c1ncn2[C@H]1C[C@H](O)[C@@H](COP(=O)(O)O)O1 in the records? 32

Need D (%), dimer of Nc1nc2c(ncn2[C@H]2C[C@H](O)[C@@H](CO)O2)c(=O)[nH]1 , thanks. 80

Looking for the measured D (%), dimer of Nc1nc2c(nc(Br)n2[C@H]2C[C@H](O)[C@@H](CO)O2)c(=O)[nH]1 , can you help? 62
